The measurements presented in this section are drawn from ChEMBL document CHEMBL1146986.

Biological target: cGMP-dependent protein kinase (Eimeria tenella)
Sequence (Q8MMZ8 whole entry): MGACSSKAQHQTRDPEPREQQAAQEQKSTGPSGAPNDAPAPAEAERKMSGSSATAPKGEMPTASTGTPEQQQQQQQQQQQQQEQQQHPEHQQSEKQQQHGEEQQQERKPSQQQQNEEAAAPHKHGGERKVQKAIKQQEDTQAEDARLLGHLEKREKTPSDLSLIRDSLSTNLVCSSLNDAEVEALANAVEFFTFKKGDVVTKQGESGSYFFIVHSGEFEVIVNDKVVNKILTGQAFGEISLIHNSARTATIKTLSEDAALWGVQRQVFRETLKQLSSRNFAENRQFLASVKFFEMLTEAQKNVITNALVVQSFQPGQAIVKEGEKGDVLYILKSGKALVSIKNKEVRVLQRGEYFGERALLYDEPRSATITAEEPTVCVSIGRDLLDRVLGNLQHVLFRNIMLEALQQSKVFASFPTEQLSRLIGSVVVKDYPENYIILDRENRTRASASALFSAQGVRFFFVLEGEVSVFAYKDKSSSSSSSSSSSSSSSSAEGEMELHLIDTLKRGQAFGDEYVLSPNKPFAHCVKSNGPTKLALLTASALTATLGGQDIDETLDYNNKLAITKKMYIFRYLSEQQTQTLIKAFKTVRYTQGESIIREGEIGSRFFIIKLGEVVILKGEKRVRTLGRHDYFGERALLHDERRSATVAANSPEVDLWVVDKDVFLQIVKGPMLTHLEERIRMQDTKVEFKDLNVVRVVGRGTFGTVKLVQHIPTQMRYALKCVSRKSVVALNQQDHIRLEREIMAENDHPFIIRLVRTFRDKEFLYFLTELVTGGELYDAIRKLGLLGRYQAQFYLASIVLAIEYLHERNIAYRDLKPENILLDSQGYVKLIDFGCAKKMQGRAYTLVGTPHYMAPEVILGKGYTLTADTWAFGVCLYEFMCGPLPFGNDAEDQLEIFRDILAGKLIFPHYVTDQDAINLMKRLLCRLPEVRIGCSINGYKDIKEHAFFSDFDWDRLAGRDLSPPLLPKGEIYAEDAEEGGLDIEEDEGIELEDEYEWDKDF
Test: Inhibitory activity against PKG
measuredEndpoint: IC50 (nM)

CN1CCC(c2ccn3c(-c4ccnc(N)n4)c(-c4ccc(F)cc4)nc3c2)CC1    0.04
CN(C)Cc1ccn2c(-c3ccnc(N)n3)c(-c3ccc(F)cc3)nc2c1    0.11
CN(C)Cc1ccn2c(-c3ccnc(N(C)C)n3)c(-c3ccc(F)cc3)nc2c1    2.5

[I] NCc1ccn2c(-c3ccnc(N)n3)c(-c3ccc(F)cc3)nc2c1
[II] COc1nccc(-c2c(-c3ccc(F)cc3)nc3cc(CN(C)C)ccn23)n1
[III] CN(C)Cc1ccn2c(-c3ccnc(NCc4ccccc4)n3)c(-c3ccc(F)cc3)nc2c1
[IV] Nc1nccc(-c2c(-c3ccc(F)cc3)nc3cc(C4CCNCC4)ccn23)n1
List items by IC50 in falling order. Lab note: final answer is the ordered label list.
II, I, III, IV
